biological target: WT Nav1.5-α subunits (Homo sapiens); construct: expressed in transfected cells; host or cells: HEK293 (transient transfection); experiment: Whole-cell patch clamp, single voltage-pulse protocol (peak INa, conductance, fast inactivation) in transiently transfected HEK293 cells; format: cell-based; details: 10 μM
readout label: fast inactivation onset time constant FI +10 mV (ms)
Numbers only here, please. The scale is ms.

Use these answered entries as a reference point.
{"structure notation": "Cc1cc(F)ccc1NS(=O)(=O)c1ccc2c(c1)=NC(=O)N=2", "units label": "ms", "measurement": 0.27}
{"structure notation": "O=C1N=c2ccc(C(=O)NCc3ccco3)cc2=NC1=O", "units label": "ms", "measurement": 0.25}
{"structure notation": "CCc1ccccc1NS(=O)(=O)c1ccc2c(c1)=NC(=O)N=2", "units label": "ms", "measurement": 0.31}

Problem: Please list fast inactivation onset time constant FI +10 mV recorded for the compound CN(C)[C@@H](CNC(=O)c1ccc2c(c1)=NC(=O)C(=O)N=2)c1ccco1
Result: 0.23

Problem: Please list fast inactivation onset time constant FI +10 mV recorded for the compound C=CCNS(=O)(=O)c1ccc2c(c1)=NC(=O)N=2
Result: 0.21

Problem: Please list fast inactivation onset time constant FI +10 mV recorded for the compound COc1cccc(NS(=O)(=O)c2ccc3c(c2)=NC(=O)N=3)c1
Result: 0.26

----------
target: WT Nav1.5-α subunits (Homo sapiens, UniProt Q14524); construct: expressed in transfected cells; host or cells: HEK293 (transient transfection); assay: Whole-cell patch clamp, single voltage-pulse protocol (peak INa, conductance, fast inactivation) in transiently transfected HEK293 cells; assay type: cell-based; settings: 100 μM
Sequence (Q14524 whole entry): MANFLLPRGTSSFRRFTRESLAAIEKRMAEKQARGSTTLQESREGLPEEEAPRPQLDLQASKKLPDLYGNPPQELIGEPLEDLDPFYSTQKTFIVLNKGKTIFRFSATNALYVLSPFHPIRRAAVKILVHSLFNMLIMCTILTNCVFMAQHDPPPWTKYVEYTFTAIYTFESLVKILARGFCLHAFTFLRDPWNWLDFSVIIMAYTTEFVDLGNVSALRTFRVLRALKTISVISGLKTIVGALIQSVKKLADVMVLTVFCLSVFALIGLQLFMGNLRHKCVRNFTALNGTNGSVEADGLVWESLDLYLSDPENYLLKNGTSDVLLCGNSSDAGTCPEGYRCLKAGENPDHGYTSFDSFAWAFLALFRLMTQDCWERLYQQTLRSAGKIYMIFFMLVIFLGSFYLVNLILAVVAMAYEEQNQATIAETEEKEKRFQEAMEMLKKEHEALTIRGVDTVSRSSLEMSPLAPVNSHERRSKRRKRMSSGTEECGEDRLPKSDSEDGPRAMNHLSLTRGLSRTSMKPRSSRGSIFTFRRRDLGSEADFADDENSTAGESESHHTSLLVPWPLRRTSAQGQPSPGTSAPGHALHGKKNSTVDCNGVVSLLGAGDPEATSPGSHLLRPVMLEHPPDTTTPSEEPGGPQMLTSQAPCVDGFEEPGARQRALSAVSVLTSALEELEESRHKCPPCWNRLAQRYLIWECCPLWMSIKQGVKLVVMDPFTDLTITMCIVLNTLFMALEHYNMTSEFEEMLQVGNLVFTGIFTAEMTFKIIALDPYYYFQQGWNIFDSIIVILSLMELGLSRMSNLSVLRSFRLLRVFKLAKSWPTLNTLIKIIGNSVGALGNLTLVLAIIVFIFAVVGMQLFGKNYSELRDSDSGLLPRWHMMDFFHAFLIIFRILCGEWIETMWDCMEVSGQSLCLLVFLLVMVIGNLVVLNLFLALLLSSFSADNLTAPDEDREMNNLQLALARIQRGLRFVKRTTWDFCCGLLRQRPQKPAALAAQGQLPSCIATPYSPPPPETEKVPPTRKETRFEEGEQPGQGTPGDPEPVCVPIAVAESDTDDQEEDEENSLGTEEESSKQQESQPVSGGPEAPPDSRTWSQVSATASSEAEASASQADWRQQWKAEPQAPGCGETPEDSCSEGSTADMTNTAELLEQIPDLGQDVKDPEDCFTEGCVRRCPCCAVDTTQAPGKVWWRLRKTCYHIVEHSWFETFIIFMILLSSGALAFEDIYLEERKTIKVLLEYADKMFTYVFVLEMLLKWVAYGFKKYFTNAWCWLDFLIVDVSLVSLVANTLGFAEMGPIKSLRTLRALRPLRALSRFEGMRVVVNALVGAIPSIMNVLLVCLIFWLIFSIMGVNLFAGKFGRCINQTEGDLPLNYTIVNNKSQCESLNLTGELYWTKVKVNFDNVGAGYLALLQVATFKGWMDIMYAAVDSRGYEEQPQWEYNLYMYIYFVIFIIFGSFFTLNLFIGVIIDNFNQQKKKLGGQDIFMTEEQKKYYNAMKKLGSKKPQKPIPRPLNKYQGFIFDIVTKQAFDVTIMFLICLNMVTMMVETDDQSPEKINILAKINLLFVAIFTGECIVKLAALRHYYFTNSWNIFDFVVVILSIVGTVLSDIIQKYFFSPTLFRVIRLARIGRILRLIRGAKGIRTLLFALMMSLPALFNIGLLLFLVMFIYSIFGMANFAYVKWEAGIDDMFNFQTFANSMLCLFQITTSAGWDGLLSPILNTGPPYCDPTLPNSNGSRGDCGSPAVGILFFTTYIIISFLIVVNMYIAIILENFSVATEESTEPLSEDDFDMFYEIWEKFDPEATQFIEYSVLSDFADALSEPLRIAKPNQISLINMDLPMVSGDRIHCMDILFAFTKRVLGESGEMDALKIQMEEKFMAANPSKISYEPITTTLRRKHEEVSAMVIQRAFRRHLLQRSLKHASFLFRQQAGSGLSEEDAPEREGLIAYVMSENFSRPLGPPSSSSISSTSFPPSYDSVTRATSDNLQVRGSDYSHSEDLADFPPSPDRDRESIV
The label depends only on fast inactivation onset time constant FI −10 mV: Fulfilled if it is at least 0.5 ms, Not fulfilled if it is smaller.

Solved entries (count: 4):
{"molecule": "CCc1ccccc1NS(=O)(=O)c1ccc2c(c1)=NC(=O)N=2 [ZINC64470737]", "qualitative label": "Fulfilled"}
{"molecule": "CN(C)[C@@H](CNC(=O)c1ccc2c(c1)=NC(=O)C(=O)N=2)c1ccco1 [ZINC40014265]", "qualitative label": "Not fulfilled"}
{"molecule": "C=CCNS(=O)(=O)c1ccc2c(c1)=NC(=O)N=2 [ZINC39699427]", "qualitative label": "Not fulfilled"}
{"molecule": "COc1cccc(NS(=O)(=O)c2ccc3c(c2)=NC(=O)N=3)c1 [ZINC64470729]", "qualitative label": "Not fulfilled"}

Problem: Does fast inactivation onset time constant FI −10 mV meet or surpass 0.5 ms for O=C1N=c2ccc(C(=O)NCc3ccco3)cc2=NC1=O [ZINC38767171] ?
Result: Fulfilled

Problem: Does fast inactivation onset time constant FI −10 mV meet or surpass 0.5 ms for Cc1cc(F)ccc1NS(=O)(=O)c1ccc2c(c1)=NC(=O)N=2 [ZINC64470745] ?
Result: Not fulfilled

----------
biological target: WT Nav1.5-α subunits (Homo sapiens); construct: expressed in transfected cells; host or cells: HEK293 (transient transfection); assay: Whole-cell patch clamp, single voltage-pulse protocol (peak INa, conductance, fast inactivation) in transiently transfected HEK293 cells; assay type: cell-based; conditions: 10 μM; normalized peak INa; 37° C.
readout label: Peak INa −20 mV

Use these answered entries as a reference point.
{"structure notation": "C=CCNS(=O)(=O)c1ccc2c(c1)=NC(=O)N=2", "measurement": "−0.66 ± 0.04"}
{"structure notation": "O=C1N=c2ccc(C(=O)NCc3ccco3)cc2=NC1=O", "measurement": "−0.72 ± 0.06"}
{"structure notation": "CCc1ccccc1NS(=O)(=O)c1ccc2c(c1)=NC(=O)N=2", "measurement": "−0.76 ± 0.13"}
{"structure notation": "Cc1cc(F)ccc1NS(=O)(=O)c1ccc2c(c1)=NC(=O)N=2", "measurement": "−0.74 ± 0.06"}
{"structure notation": "COc1cccc(NS(=O)(=O)c2ccc3c(c2)=NC(=O)N=3)c1", "measurement": "−0.75 ± 0.05"}

Kindly review the next compound as well.
Problem: Please list Peak INa −20 mV recorded for the compound CN(C)[C@@H](CNC(=O)c1ccc2c(c1)=NC(=O)C(=O)N=2)c1ccco1
Result: −0.80 ± 0.06

----------
biological target: WT Nav1.5-α subunits (Homo sapiens, UniProt Q14524); construct: expressed in transfected cells; host or cells: HEK293 (transient transfection); assay: Whole-cell patch clamp, single voltage-pulse protocol (peak INa, conductance, fast inactivation) in transiently transfected HEK293 cells; type: cell-based; settings: 100 μM
The entries below are paired with their reported % Block −20 mV.
Numbers only here, please. The scale is %.

{"structure notation": "COc1cccc(NS(=O)(=O)c2ccc3c(c2)=NC(=O)N=3)c1", "target under test": "WT Nav1.5-α subunits (Homo sapiens, UniProt Q14524)", "% Block −20 mV (%)": "−38.14"}
{"structure notation": "Cc1cc(F)ccc1NS(=O)(=O)c1ccc2c(c1)=NC(=O)N=2", "target under test": "WT Nav1.5-α subunits (Homo sapiens, UniProt Q14524)", "% Block −20 mV (%)": "−24.74"}
{"structure notation": "CCc1ccccc1NS(=O)(=O)c1ccc2c(c1)=NC(=O)N=2", "target under test": "WT Nav1.5-α subunits (Homo sapiens, UniProt Q14524)", "% Block −20 mV (%)": "−74.49"}

Problem: Please list % Block −20 mV recorded for the compound O=C1N=c2ccc(C(=O)NCc3ccco3)cc2=NC1=O
Result: −38.95

Problem: Please list % Block −20 mV recorded for the compound C=CCNS(=O)(=O)c1ccc2c(c1)=NC(=O)N=2
Result: −47.00

Problem: Please list % Block −20 mV recorded for the compound CN(C)[C@@H](CNC(=O)c1ccc2c(c1)=NC(=O)C(=O)N=2)c1ccco1
Result: −41.00

----------
target: WT Nav1.5-α subunits (Homo sapiens); construct: expressed in transfected cells; host or cells: HEK293 (transient transfection); experiment: Whole-cell patch clamp, single voltage-pulse protocol (peak INa, conductance, fast inactivation) in transiently transfected HEK293 cells; type: cell-based; conditions: 50 μM
readout label: fast inactivation onset time constant FI +10 mV (ms)
Numbers only here, please. The scale is ms.

Use these answered entries as a reference point.
{"compound": "C=CCNS(=O)(=O)c1ccc2c(c1)=NC(=O)N=2 [ZINC39699427]", "measurement": 0.25}
{"compound": "COc1cccc(NS(=O)(=O)c2ccc3c(c2)=NC(=O)N=3)c1 [ZINC64470729]", "measurement": 0.26}
{"compound": "CCc1ccccc1NS(=O)(=O)c1ccc2c(c1)=NC(=O)N=2 [ZINC64470737]", "measurement": 0.39}
{"compound": "CN(C)[C@@H](CNC(=O)c1ccc2c(c1)=NC(=O)C(=O)N=2)c1ccco1 [ZINC40014265]", "measurement": 0.25}
{"compound": "O=C1N=c2ccc(C(=O)NCc3ccco3)cc2=NC1=O [ZINC38767171]", "measurement": 0.34}

Kindly review the next compound as well.
Problem: Please list fast inactivation onset time constant FI +10 mV recorded for the compound Cc1cc(F)ccc1NS(=O)(=O)c1ccc2c(c1)=NC(=O)N=2 [ZINC64470745]
Result: 0.25

----------
target: WT Nav1.5-α subunits (Homo sapiens, UniProt Q14524); construct: expressed in transfected cells; host or cells: HEK293 (transient transfection); assay: Whole-cell patch clamp, single voltage-pulse protocol (peak INa, conductance, fast inactivation) in transiently transfected HEK293 cells; format: cell-based; settings: 100 μM
The label depends only on fast inactivation onset time constant FI −30 mV: true (1) if it is at least 0.8 ms, false (0) if it is smaller.

Problem: Does fast inactivation onset time constant FI −30 mV meet or surpass 0.8 ms for CCc1ccccc1NS(=O)(=O)c1ccc2c(c1)=NC(=O)N=2 ?
Result: true (1)

----------
biological target: WT Nav1.5-α subunits (Homo sapiens); construct: expressed in transfected cells; host or cells: HEK293 (transient transfection); test: Whole-cell patch clamp, single voltage-pulse protocol (peak INa, conductance, fast inactivation) in transiently transfected HEK293 cells; type: cell-based; settings: 50 μM
readout label: % Block −20 mV (%)
Numbers only here, please. The scale is %.

Use these answered entries as a reference point.
{"compound": "CN(C)[C@@H](CNC(=O)c1ccc2c(c1)=NC(=O)C(=O)N=2)c1ccco1 [ZINC40014265]", "% Block −20 mV, %": "−37.00"}
{"compound": "O=C1N=c2ccc(C(=O)NCc3ccco3)cc2=NC1=O [ZINC38767171]", "% Block −20 mV, %": "−37.89"}
{"compound": "C=CCNS(=O)(=O)c1ccc2c(c1)=NC(=O)N=2 [ZINC39699427]", "% Block −20 mV, %": "−42.00"}
{"compound": "CCc1ccccc1NS(=O)(=O)c1ccc2c(c1)=NC(=O)N=2 [ZINC64470737]", "% Block −20 mV, %": "−40.82"}
{"compound": "COc1cccc(NS(=O)(=O)c2ccc3c(c2)=NC(=O)N=3)c1 [ZINC64470729]", "% Block −20 mV, %": "−25.77"}

Kindly review the next compound as well.
Problem: Please list % Block −20 mV recorded for the compound Cc1cc(F)ccc1NS(=O)(=O)c1ccc2c(c1)=NC(=O)N=2 [ZINC64470745]
Result: −12.37
